Where these numbers come from: patent US6780883B2

# Test system: Lp(a) production in HepG2^K17 cells
# Test: LPA3 screen: inhibition of Lp(a) production in transfected HepG2 cells, Lp(a) in media by ELISA
# Type: cell-based
# Test settings: Homo sapiens, 8 hours, 0.3 to 50 μM compound, Lp(a) normalized for total protein, read-out: Lp A3 IC50

>  <Compound>
COc1cccc(CN(C(=O)c2ccccc2)c2ccccc2)c1 [Example 61, N-(3-Methoxy-benzyl)-N-phenyl-benzamide]

>  <IC50, µM>
47.1

$$$$
>  <Compound>
CCC[S+]([O-])c1ccccc1C(=O)N(Cc1ccccc1-c1ccccc1)c1ccc(OC)cc1 (stereo not shown)

>  <IC50, µM>
7

$$$$
>  <Compound>
COc1ccc(N(Cc2ccccc2-c2ccccc2)C(=O)c2ccccc2SC)cc1OC

>  <IC50, µM>
12.9

$$$$
>  <Compound>
COc1ccc(N(Cc2ccccc2-c2ccccc2)C(=O)c2ccccc2[S+]([O-])C(C)C)cc1 (stereo not shown)

>  <IC50, µM>
3.5

$$$$

====

# Tested on: Lp(a) production in HepG2^K17 cells
# Test: LPA3 screen: inhibition of Lp(a) production in transfected HepG2 cells, Lp(a) in media by ELISA
# Assay type: cell-based
# Test settings: Homo sapiens, 8 hours, 0.3 to 50 μM compound, Lp(a) normalized for total protein, read-out: Lp A3 IC50
pIC50: −log10 of the molar value.
Consider the following molecules and their measured pIC50 readings.

>  <Structure>
CCN(CC)CCCc1ccc(N(Cc2ccc(OC)cc2)C(=O)c2ccccc2)cc1

>  <pIC50>
4.38

$$$$
>  <Structure>
COc1ccc(N(Cc2ccc3c(c2)C(C)(C)CCC3(C)C)C(=O)c2cc(OC)c(OC)c(OC)c2)cn1

>  <pIC50>
4.49

$$$$
>  <Structure>
COc1ccc(N(Cc2ccccc2-c2ccccc2)C(=O)c2ccccc2OCc2ccccc2)cc1

>  <pIC50>
4.81

$$$$
>  <Structure>
COc1ccc(CN(C(=O)c2ccccc2SCc2ccccc2)c2ccc(OC)cc2)cc1

>  <pIC50>
4.22

$$$$
>  <Structure>
COc1ccc(C(=O)N(Cc2cc(Br)cc(Br)c2)c2ccccc2)cc1OC

>  <pIC50>
4.50

$$$$
>  <Structure>
COc1ccc(C(=O)N(Cc2ccccc2-c2ccccc2)c2ccccc2)cc1OC

>  <pIC50>
4.85

$$$$
>  <Structure>
COc1ccc(N(Cc2ccccc2-c2ccccc2)C(=O)c2ccccc2SC(C)C)cc1OC

>  <pIC50>
4.66

$$$$
>  <Structure>
COc1cc(C(=O)N(Cc2ccc(C(C)(C)C)cc2)c2cnc3ccccc3c2)cc(OC)c1OC

>  <pIC50>
4.60

$$$$
>  <Structure>
CCCCOc1ccc(N(Cc2ccc3c(c2)C(C)(C)CCC3(C)C)C(=O)CN(CC)CC)cn1

>  <pIC50>
4.43

$$$$
>  <Structure>
O=C(c1ccccc1[N+](=O)[O-])N(Cc1ccccc1-c1ccccc1)c1ccccn1

>  <pIC50>
4.63

$$$$
>  <Structure>
CCOc1ccccc1C(=O)N(Cc1ccc(Cl)c(Cl)c1)c1cccnc1

>  <pIC50>
4.99

$$$$
>  <Structure>
COc1ccccc1C(=O)N(Cc1cccnc1)Cc1ccccc1-c1ccccc1

>  <pIC50>
5.20

$$$$
>  <Structure>
CCN(CC)CCCc1ccc(N(Cc2ccc3ccccc3c2)C(=O)c2ccccc2)cc1

>  <pIC50>
4.94

$$$$
>  <Structure>
CC(C)c1ccc(C(=O)N(Cc2ccccc2-c2ccccc2)c2cccnc2)cc1

>  <pIC50>
4.43

$$$$
>  <Structure>
CC(C)c1ccc(C(=O)N(Cc2ccc3ccccc3c2)c2cccnc2)cc1

>  <pIC50>
5.14

$$$$
>  <Structure>
COc1ccc(N(Cc2ccccc2-c2ccccc2)C(=O)c2ccccc2OC)cn1

>  <pIC50>
4.33

$$$$
>  <Structure>
CCN(CC)CCCc1ccc(N(Cc2cccc(OC)c2)C(=O)c2ccccc2)cc1

>  <pIC50>
4.43

$$$$

====

# System: Lp(a) production in HepG2^K17 cells
# Test: LPA3 screen: inhibition of Lp(a) production in transfected HepG2 cells, Lp(a) in media by ELISA
# Type: cell-based
# Test settings: Homo sapiens, 8 hours, 0.3 to 50 μM compound, Lp(a) normalized for total protein, read-out: Lp A3 IC50
pIC50: −log10 of the molar value.
Recorded metric: pIC50

>  <Structure>
O=C(c1ccccc1[N+](=O)[O-])N(Cc1ccccc1-c1ccccc1)c1ccncc1

>  <Target of assay>
Lp(a) production in HepG2^K17 cells

>  <Value observed>
4.65

$$$$
>  <Structure>
COc1ccc(C(=O)N(Cc2ccccc2-c2ccccc2)c2ccc(OC)cc2)cc1

>  <Target of assay>
Lp(a) production in HepG2^K17 cells

>  <Value observed>
4.31

$$$$
>  <Structure>
COc1cccc(N(Cc2ccccc2-c2ccccc2)C(=O)c2ccccc2SC)c1

>  <Target of assay>
Lp(a) production in HepG2^K17 cells

>  <Value observed>
5.19

$$$$
>  <Structure>
COc1ccccc1N(Cc1ccc(Cl)c(Cl)c1)C(=O)c1ccccc1

>  <Target of assay>
Lp(a) production in HepG2^K17 cells

>  <Value observed>
4.82

$$$$
>  <Structure>
O=C(c1ccccc1[N+](=O)[O-])N(Cc1cccnc1)Cc1ccccc1-c1ccccc1

>  <Target of assay>
Lp(a) production in HepG2^K17 cells

>  <Value observed>
4.34

$$$$
>  <Structure>
COc1ccc(C(=O)N(Cc2ccc(C(C)(C)C)cc2)c2ccccc2)cc1OC

>  <Target of assay>
Lp(a) production in HepG2^K17 cells

>  <Value observed>
4.51

$$$$
>  <Structure>
O=C(c1ccccc1[N+](=O)[O-])N(Cc1ccccc1-c1ccccc1)c1cccnc1

>  <Target of assay>
Lp(a) production in HepG2^K17 cells

>  <Value observed>
4.74

$$$$
>  <Structure>
O=C(c1cccc2c1OCO2)N(Cc1ccccc1-c1ccccc1)c1ccncc1

>  <Target of assay>
Lp(a) production in HepG2^K17 cells

>  <Value observed>
4.74

$$$$

====

Recorded pIC50 for the following compounds
# Tested on: Lp(a) production in HepG2^K17 cells
# Test: LPA3 screen: inhibition of Lp(a) production in transfected HepG2 cells, Lp(a) in media by ELISA
# Assay type: cell-based
# Test settings: Homo sapiens, 8 hours, 0.3 to 50 μM compound, Lp(a) normalized for total protein, read-out: Lp A3 IC50
pIC50: −log10 of the molar value.

>  <Structure>
COc1ccc(N(Cc2ccccc2-c2ccccc2)C(=O)c2ccccc2SC(C)C)cc1

>  <Target of assay>
Lp(a) production in HepG2^K17 cells

>  <pIC50>
4.31

$$$$
>  <Structure>
CCOc1ccccc1C(=O)N(Cc1ccccc1-c1ccccc1)c1ccncc1

>  <Target of assay>
Lp(a) production in HepG2^K17 cells

>  <pIC50>
5.24

$$$$
>  <Structure>
COc1ccc(N(Cc2ccccc2-c2ccccc2)C(=O)c2ccccc2Br)cc1

>  <Target of assay>
Lp(a) production in HepG2^K17 cells

>  <pIC50>
4.42

$$$$
>  <Structure>
COc1cc(C(=O)N(Cc2ccccc2-c2ccccc2)c2cnc3ccccc3c2)cc(OC)c1OC

>  <Target of assay>
Lp(a) production in HepG2^K17 cells

>  <pIC50>
4.88

$$$$
>  <Structure>
COc1ccc(CN(C(=O)c2ccccc2)c2ccccc2OC)cc1

>  <Target of assay>
Lp(a) production in HepG2^K17 cells

>  <pIC50>
4.52

$$$$
>  <Structure>
COc1cccc(N(Cc2ccccc2-c2ccccc2)C(=O)c2ccccc2SC(C)C)c1

>  <Target of assay>
Lp(a) production in HepG2^K17 cells

>  <pIC50>
4.50

$$$$
>  <Structure>
COc1cccc(CN(C(=O)c2ccccc2)c2ccccc2OC)c1

>  <Target of assay>
Lp(a) production in HepG2^K17 cells

>  <pIC50>
4.72

$$$$
>  <Structure>
COc1ccc(C(=O)N(Cc2cc(C(C)(C)C)cc(C(C)(C)C)c2)c2ccccc2)cc1OC

>  <Target of assay>
Lp(a) production in HepG2^K17 cells

>  <pIC50>
4.31

$$$$

====

Reported IC50 values for a set of compounds
# System: Lp(a) production in HepG2^K17 cells
# Test: LPA3 screen: inhibition of Lp(a) production in transfected HepG2 cells, Lp(a) in media by ELISA
# Format: cell-based
# Test settings: Homo sapiens, 8 hours, 0.3 to 50 μM compound, Lp(a) normalized for total protein, read-out: Lp A3 IC50

>  <Compound>
CCN(CC)CCCc1ccc(N(Cc2ccc(Cl)c(Cl)c2)C(=O)c2ccccc2)cc1 [Example 56]

>  <Value unit>
µM

>  <IC50>
11

$$$$
>  <Compound>
O=C(c1ccccc1[S+]([O-])c1ccccc1)N(Cc1ccccc1-c1ccccc1)c1ccc(Cl)cc1 (centres unmarked) [Example 140]

>  <Value unit>
µM

>  <IC50>
24.9

$$$$
>  <Compound>
COc1ccc(N(Cc2ccccc2-c2ccccc2)C(=O)c2ccccc2SCc2ccccc2)cc1OC [Example 137]

>  <Value unit>
µM

>  <IC50>
9.8

$$$$
>  <Compound>
COc1ccc(C(=O)N(Cc2ccc(Cl)c(Cl)c2)c2ccccc2)cc1OC [Example 46]

>  <Value unit>
µM

>  <IC50>
35.1

$$$$
>  <Compound>
CCOc1ccccc1C(=O)N(Cc1ccc(C(C)(C)C)cc1)c1cccnc1 [Example 80]

>  <Value unit>
µM

>  <IC50>
19.2

$$$$
>  <Compound>
COc1cccc(CN(C(=O)c2ccc(C(C)C)cc2)c2cccnc2)c1 [Example 69]

>  <Value unit>
µM

>  <IC50>
18.8

$$$$
>  <Compound>
CCOc1ccccc1C(=O)N(Cc1cccc(OC)c1)c1cccnc1 [Example 77]

>  <Value unit>
µM

>  <IC50>
44.5

$$$$
>  <Compound>
CCOc1ccccc1C(=O)N(Cc1cccnc1)Cc1ccccc1-c1ccccc1 [Example 96]

>  <Value unit>
µM

>  <IC50>
7.5

$$$$
